# Target or system: Human orexin receptor type 2 (Homo sapiens)
# Construct: expressed in transfected cells; host or cells: CHO cells (transient expression)
# Measurement description: Test 2: Evaluation of agonist activity for orexin receptor type 2 (aequorin luminescence, intracellular calcium mobilization in CHO cells)
# Format: cell-based
# Settings: relative percentage of luminescence for the luminescence (100%) of Orexin A (100 pM); CHO cells transiently expressing human orexin receptor type 2 and apoaequorin; Orexin A Lot. 671009
Quantity measured: agonist activity (%)

CC(C)N1CCN([C@H]2CCC[C@H](F)[C@@H]2NC(=O)N2CCC(C)(c3noc([C@@H]4C[C@@H]4F)n3)CC2)CC1 [Example 156] ... 323
CC(C)N1CCN([C@H]2CCC[C@@H](F)[C@@H]2NC(=O)N2CCC(C)(c3noc(C4CC4)n3)CC2)CC1 (racemic) [Example 139] ... 351
CC(C)c1nc([C@H]2CCCC(F)(F)[C@@H]2NC(=O)N2CCC(C)(c3noc([C@@H]4C[C@@H]4F)n3)CC2)no1 [Example 86] ... 367

* * *

# Target or system: Human orexin receptor type 2 (Homo sapiens)
# Construct: expressed in transfected cells; host or cells: CHO cells (transient expression)
# Measurement description: Test 1: Evaluation of agonist activity for orexin receptor type 2 (aequorin luminescence, intracellular calcium mobilization in CHO cells)
# Assay type: cell-based
# Settings: relative percentage of luminescence for the luminescence (100%) of Orexin A (100 pM); CHO cells transiently expressing human orexin receptor type 2 and apoaequorin; Orexin A Lot. 641114
Quantity measured: agonist activity (%)

Recorded agonist activity (%), per entry:
COc1nc(C2(C)CCN(C(=O)N[C@@H]3[C@@H](N4CCN(C(C)C)CC4)CCCC3(F)F)CC2)ns1 (racemic) ... 150
CC(C)N1CCN([C@H]2CCCC(F)(F)[C@@H]2NC(=O)N2CCC(C)(c3nsc(C4CC4)n3)CC2)CC1 (racemic) [Example 31] ... 168
CC(C)N1CCN([C@H]2CCCC(F)(F)[C@@H]2NC(=S)N2CCC(C)(c3noc(C4CC4)n3)CC2)CC1 (racemic) [Example 79] ... 191

(A) CC(C)N1CCN([C@H]2CCCC(F)(F)[C@@H]2NC(=O)N2CCC(C)(C3CCCC3)CC2)CC1 (racemic)
(B) CC(C)N1CCN([C@H]2CCCC(F)(F)[C@@H]2NC(=O)N2CCC(C)(c3ncn(C4CC4)n3)CC2)CC1 (racemic)
Hi! Which is lower in terms of agonist activity (%), the first one A or the second one B ? Indicate which entry you chose by stating its label. B
(B: 109%, A: 198%)

* * *

# Target or system: Human orexin receptor type 2 (Homo sapiens, UniProt O43614)
# Construct: expressed in transfected cells; host or cells: CHO cells (transient expression)
# Sequence (O43614 whole entry): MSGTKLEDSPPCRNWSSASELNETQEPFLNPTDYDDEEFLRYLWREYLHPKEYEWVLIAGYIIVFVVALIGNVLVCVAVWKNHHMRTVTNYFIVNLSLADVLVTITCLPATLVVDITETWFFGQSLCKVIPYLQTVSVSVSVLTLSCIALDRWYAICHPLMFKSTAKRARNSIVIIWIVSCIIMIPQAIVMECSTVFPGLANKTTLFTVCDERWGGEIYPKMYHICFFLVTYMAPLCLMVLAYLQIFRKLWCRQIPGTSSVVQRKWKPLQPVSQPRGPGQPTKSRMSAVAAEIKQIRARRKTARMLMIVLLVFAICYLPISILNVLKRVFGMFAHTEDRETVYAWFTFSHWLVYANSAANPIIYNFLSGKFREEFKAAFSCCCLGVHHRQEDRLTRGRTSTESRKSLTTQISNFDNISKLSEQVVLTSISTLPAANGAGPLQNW
# Measurement description: Test 2: Evaluation of agonist activity for orexin receptor type 2 (aequorin luminescence, intracellular calcium mobilization in CHO cells)
# Type: cell-based
# Settings: relative percentage of luminescence for the luminescence (100%) of Orexin A (100 pM); CHO cells transiently expressing human orexin receptor type 2 and apoaequorin; Orexin A Lot. 671009
# Description: Test 2: Evaluation of Agonist Activity for Orexin Receptor Type 2 Human orexin receptor type 2 and apoaequorin were transiently expressed in CHO cells, and the agonist activity was evaluated based on intracellular calcium mobilization with ligand stimulation. […] The agonist activity of each test compound for orexin receptor type 2 was calculated as relative percentage of luminescence for the luminescence (100%) of Orexin A (100 pM).
Quantity measured: agonist activity (%)

CN(CC1CC1)[C@H]1CCN([C@H]2CCCC(F)(F)[C@@H]2NC(=O)N2CCC(C)(c3noc([C@@H]4C[C@@H]4F)n3)CC2)C1 ... 376

(P) CC(C)N1CCN(C(=O)[C@H]2CCCC(F)(F)[C@@H]2NC(=O)N2CCC(C)(c3noc([C@@H]4C[C@@H]4F)n3)CC2)CC1
(Q) CO[C@@H]1CN(C(C)C)C[C@H]1O[C@H]1CCCC(F)(F)[C@@H]1NC(=O)N1CCC(C)(c2noc([C@@H]3C[C@@H]3F)n2)CC1
Lower value for measured agonist activity (%)? Options: P , Q Please indicate the selected item by its label. P
(P: 166%, Q: 292%)
